experiment.description: ATP-based viability of Huh7 replicon cells – cell-based, CellTiter-Glo luminescence, basal, 48 h, cytotoxicity control for HCV replication inhibitor project, primary screen (AID 1143);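 also: Huh7 hepatoma cells carrying a hepatitis C replication reporter with no stimulus; test concentration not given here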
condition.context: higher = more signal, called active from +8 up or from −8 down
parameter.measured: z-score
Give the figure by itself; no unit, no explanation.

Study these solved cases before continuing.
C=CCOC(=O)[C@H]1[C@@H]2C(=O)O[C@@H](c3ccccc3)[C@@H](c3ccccc3)N2[C@@H](c2ccc(OCCOC(=O)[C@@H]3C[C@@H]4C(=O)NCC(=O)N4[C@@H]3c3ccc(O)cc3)cc2)[C@]12C(=O)Nc1ccc(I)cc12 ... 0.586
COCCCNC(=O)[C@@]1(Sc2ccc(C)cc2)CC(=O)N(Cc2ccccc2)[C@@H]1c1ccc(CO)cc1 ... 0.101
O=C1O[C@H](c2ccccc2)[C@H](c2ccccc2)N2[C@H]1[C@@H](C(=O)NC[C@H](O)c1ccccc1)[C@]1(C(=O)Nc3ccc(C#CC4(O)CCCCCC4)cc31)[C@H]2c1ccccc1OCCO ... -5.52

Check the records and state z-score for "COC(=O)[C@@]1(Cc2ccccc2)[C@H]2c3cc(C(=O)N(C)C)n(Cc4cc(F)c(F)c(F)c4)c3C[C@H]2CN1C(=O)c1ccccc1" -3.19

Hello, please tell me recorded z-score for this one: "CC(C)[Si]1(C(C)C)O[C@@H](c2ccccc2)c2cc(-c3ccc(-c4ccc(Cl)c(Cl)c4)o3)nc(CCc3ccccc3)c21" -1.03

In one line, give reported z-score of the entry "COC(=O)[C@@]1(Cc2ccc(OC)cc2)[C@H]2c3cc(C(=O)N(C)C)n(Cc4ccc(OC)c(OC)c4)c3C[C@H]2CN1C(=O)c1ccccc1" . -2.97

----------
tgt: Calmodulin-1 (Homo sapiens)
experiment.description: small molecules binding Ca-loaded calmodulin-1 – biochemical, small-molecule microarray, Cy5-labelled CALM1, plus calcium, artefact control for SMM control-protein annotation, profiling panel (AID 1112);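 also: score merges spot fluorescence with signal to noise from triplicate slides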
condition.context: Cy5-CALM1 binding fluorescence, higher = more signal
parameter.measured: composite z-score
I'd appreciate a reply containing only the number, no unit.

Read off the recorded composite z-score for "COc1ccc([Si](C)(C)[C@@H]2[C@@H](CCO)O[C@]3(C(=O)N(Cc4cccc(N5CCCCC5=O)c4)c4ccccc43)[C@H]2C)cc1" 0.415

Please supply the value of reported composite z-score for the item "CN(C)CCCCCCNC(=O)[C@@H]1C[C@@H]2C(=O)N[C@@H](Cc3ccccc3)C(=O)N2[C@@H]1c1cccc(OCCO)c1" -0.287

----------
tgt: Carbonic anhydrase 2 (Homo sapiens) (UniProt P00918)
experiment.description: compounds binding carbonic anhydrase 2 – biochemical, small-molecule microarray, Alexa647-labelled CAII, profiling panel (AID 1122)
condition.context: CAII-A647 binding fluorescence, higher = more signal
parameter.measured: composite z-score
Would you mind answering with just the numeric figure?

CCCCC(=C=CC[C@H](O)c1ccccc1OCCO)C[C@H](O)c1cc(Cl)cc(Cl)c1O ... 0.649
CC(=O)NCCCC[C@@H]1NC(=O)[C@@H]2C[C@H](C(=O)NCc3ccc(F)cc3)[C@H](c3ccc(O)cc3)N2C1=O ... 0.715
C=C(C(=O)CC[C@@H](OC(=O)c1cccnc1)c1ccc(OCCO)cc1)C(C)C ... 0.0384
[N-]=[N+]=NCc1ccccc1C[C@]1(C(=O)NCC(O)CO)COC(c2ccc(OCCCO)cc2)=N1 (some centres not stated) ... 0.8
C=CCC(OC(C)=O)[C@@H]1[C@@H](N(Cc2cc3ccccc3o2)C(=O)c2ccc(-c3ccccc3)cc2)c2cc(OCCCO)ccc2N1C(=O)Cc1ccc2ccccc2c1 (some centres not stated) ... -0.127
C=C(/C(=C/C[C@@H](OC(=O)c1ccncc1)c1ccc(CO)o1)c1cc(C(=O)OC)ccc1OC)C(C)C ... 0.588

Annotate the compound "COC(=O)[C@@]1(Cc2ccc(F)cc2)[C@H]2c3cc(C(=O)N(C)C)n(CCCNc4ccc(C(F)(F)F)cc4Cl)c3C[C@H]2CN1C(=O)c1ccccc1" with its measured composite z-score. 0.778
